FYI, the data here is from patent EP4467137A1.

assay: In vitro blood-brain barrier permeation assay (PAMPA-BBB); assay type: in vitro ADME; conditions: PAMPA; permeation rate, mean ± SD; read-out: PAMPA-BBB Pe

>  <compound>
C#CCN1c2ccc(OC)cc2CC1c1cn(CC#C)c2ccc(OC)cc12 (centres unmarked)

>  <Papp>
8.3 ×10⁻⁶ cm/s

$$$$
>  <compound>
COc1ccc2c(c1)CC(c1c[nH]c3ccc(OC)cc13)N2 (centres unmarked)

>  <Papp>
12.9 ×10⁻⁶ cm/s

$$$$
>  <compound>
COc1ccc2[nH]c(-c3c[nH]c4ccc(OC)cc34)cc2c1

>  <Papp>
8.7 ×10⁻⁶ cm/s

$$$$
>  <compound>
Clc1ccc2[nH]c(-c3c[nH]c4ccc(Cl)cc34)cc2c1

>  <Papp>
10.9 ×10⁻⁶ cm/s

$$$$
>  <compound>
Clc1ccc2c(c1)CC(c1c[nH]c3ccc(Cl)cc13)N2 (centres unmarked)

>  <Papp>
5.2 ×10⁻⁶ cm/s

$$$$
>  <compound>
COc1cccc2c1NC(c1c[nH]c3c(OC)cccc13)C2 (centres unmarked)

>  <Papp>
18.5 ×10⁻⁶ cm/s

$$$$
>  <compound>
FC(F)(F)c1ccc2c(c1)CC(c1c[nH]c3ccc(C(F)(F)F)cc13)N2 (centres unmarked)

>  <Papp>
18.1 ×10⁻⁶ cm/s

$$$$
>  <compound>
c1ccc2c(c1)CC(c1c[nH]c3ccccc13)N2 (centres unmarked)

>  <Papp>
11.5 ×10⁻⁶ cm/s

$$$$

---

Each entry below carries its recorded CC50.
test: Cell viability/toxicity by the MTT method; format: cell-based; conditions: human, effect of the compound per se on AREc332 cells
assay readout: CC50

>  <molecule>
COc1ccc2c(c1)CC(c1c[nH]c3ccc(OC)cc13)N2 (centres unmarked) [Compound 1]

>  <recorded result>
> 30 µM

$$$$
>  <molecule>
COc1ccc2[nH]c(-c3c[nH]c4ccc(OC)cc34)cc2c1 [Compound 2, 5,5'-Dimethoxy-1H,1'H-2,3'-biindole]

>  <recorded result>
3 to 10 µM

$$$$
>  <molecule>
FC(F)(F)c1ccc2c(c1)CC(c1c[nH]c3ccc(C(F)(F)F)cc13)N2 (centres unmarked) [Compound 7]

>  <recorded result>
10 to 30 µM

$$$$
>  <molecule>
C#CCN1c2ccc(OC)cc2CC1c1cn(CC#C)c2ccc(OC)cc12 (centres unmarked) [Compound 8]

>  <recorded result>
> 30 µM

$$$$
>  <molecule>
Clc1ccc2c(c1)CC(c1c[nH]c3ccc(Cl)cc13)N2 (centres unmarked) [Compound 4]

>  <recorded result>
10 to 30 µM

$$$$
>  <molecule>
COc1cccc2c1NC(c1c[nH]c3c(OC)cccc13)C2 (centres unmarked) [Compound 6]

>  <recorded result>
> 30 µM

$$$$
>  <molecule>
Clc1ccc2[nH]c(-c3c[nH]c4ccc(Cl)cc34)cc2c1 [Compound 5, 5,5'-Dichloro-1H,1'H-2,3'-biindole]

>  <recorded result>
> 30 µM

$$$$
>  <molecule>
c1ccc2c(c1)CC(c1c[nH]c3ccccc13)N2 (centres unmarked) [Compound 3, 3-(Indolin-2-yl)-1H-indole]

>  <recorded result>
> 30 µM

$$$$

---

system: primary rat glial cultures; test: Anti-neuroinflammatory screening in LPS-treated primary glial cultures (Griess, normalized by MTT); assay type: cell-based; conditions: % reduction of nitrites, LPS alone = 100 % inflammation, read-out: Anti-neuro inflammatory effect at 3 µM (%)

>  <compound>
FC(F)(F)c1ccc2c(c1)CC(c1c[nH]c3ccc(C(F)(F)F)cc13)N2 (centres unmarked)

>  <inhibition at 3 µM>
45%

$$$$
>  <compound>
Clc1ccc2[nH]c(-c3c[nH]c4ccc(Cl)cc34)cc2c1

>  <inhibition at 3 µM>
30%

$$$$
>  <compound>
Clc1ccc2c(c1)CC(c1c[nH]c3ccc(Cl)cc13)N2 (centres unmarked)

>  <inhibition at 3 µM>
29.6%

$$$$
>  <compound>
c1ccc2c(c1)CC(c1c[nH]c3ccccc13)N2 (centres unmarked)

>  <inhibition at 3 µM>
24.4%

$$$$
>  <compound>
C#CCN1c2ccc(OC)cc2CC1c1cn(CC#C)c2ccc(OC)cc12 (centres unmarked)

>  <inhibition at 3 µM>
37%

$$$$
>  <compound>
COc1cccc2c1NC(c1c[nH]c3c(OC)cccc13)C2 (centres unmarked)

>  <inhibition at 3 µM>
45%

$$$$
>  <compound>
COc1ccc2[nH]c(-c3c[nH]c4ccc(OC)cc34)cc2c1

>  <inhibition at 3 µM>
33.2%

$$$$
>  <compound>
COc1ccc2c(c1)CC(c1c[nH]c3ccc(OC)cc13)N2 (centres unmarked)

>  <inhibition at 3 µM>
100%

$$$$

---

Target chain: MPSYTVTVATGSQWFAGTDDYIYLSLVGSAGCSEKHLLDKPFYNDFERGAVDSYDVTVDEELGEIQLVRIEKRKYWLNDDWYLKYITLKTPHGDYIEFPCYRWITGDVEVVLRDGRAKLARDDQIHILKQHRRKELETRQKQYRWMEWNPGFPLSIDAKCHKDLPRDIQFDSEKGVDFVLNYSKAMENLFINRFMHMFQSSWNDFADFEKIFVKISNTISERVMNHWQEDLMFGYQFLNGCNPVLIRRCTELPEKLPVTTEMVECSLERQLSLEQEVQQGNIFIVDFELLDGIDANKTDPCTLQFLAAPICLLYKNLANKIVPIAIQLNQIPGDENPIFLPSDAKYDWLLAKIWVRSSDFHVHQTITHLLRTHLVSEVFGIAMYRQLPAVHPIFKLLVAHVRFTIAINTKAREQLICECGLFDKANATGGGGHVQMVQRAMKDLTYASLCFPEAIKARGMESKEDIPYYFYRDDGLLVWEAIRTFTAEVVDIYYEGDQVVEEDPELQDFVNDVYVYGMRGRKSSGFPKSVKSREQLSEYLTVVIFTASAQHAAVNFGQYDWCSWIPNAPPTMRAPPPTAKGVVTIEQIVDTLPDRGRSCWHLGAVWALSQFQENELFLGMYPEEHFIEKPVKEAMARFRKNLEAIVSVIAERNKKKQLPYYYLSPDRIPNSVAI
pIC50: −log10 of the molar value.

>  <compound>
Clc1ccc2c(c1)CC(c1c[nH]c3ccc(Cl)cc13)N2 (centres unmarked)

>  <sign>
=

>  <pIC50>
5.34

$$$$
>  <compound>
c1ccc2c(c1)CC(c1c[nH]c3ccccc13)N2 (centres unmarked)

>  <sign>
=

>  <pIC50>
5.54

$$$$
>  <compound>
C#CCN1c2ccc(OC)cc2CC1c1cn(CC#C)c2ccc(OC)cc12 (centres unmarked)

>  <sign>
=

>  <pIC50>
6.28

$$$$
>  <compound>
COc1cccc2c1NC(c1c[nH]c3c(OC)cccc13)C2 (centres unmarked)

>  <sign>
<

>  <pIC50>
4.00

$$$$
>  <compound>
Clc1ccc2[nH]c(-c3c[nH]c4ccc(Cl)cc34)cc2c1

>  <sign>
<

>  <pIC50>
4.00

$$$$
>  <compound>
COc1ccc2[nH]c(-c3c[nH]c4ccc(OC)cc34)cc2c1

>  <sign>
=

>  <pIC50>
6.38

$$$$
>  <compound>
FC(F)(F)c1ccc2c(c1)CC(c1c[nH]c3ccc(C(F)(F)F)cc13)N2 (centres unmarked)

>  <sign>
=

>  <pIC50>
5.18

$$$$
>  <compound>
COc1ccc2c(c1)CC(c1c[nH]c3ccc(OC)cc13)N2 (centres unmarked)

>  <sign>
=

>  <pIC50>
5.51

$$$$
